# ASSAY TARGET: LuxS of E. coli (Escherichia coli O157:H7)
# Construct: endogenous in cells; host or cells: E. coli O157:H7 (ATCC 43895)
# Sequence (Q8X902 2-171): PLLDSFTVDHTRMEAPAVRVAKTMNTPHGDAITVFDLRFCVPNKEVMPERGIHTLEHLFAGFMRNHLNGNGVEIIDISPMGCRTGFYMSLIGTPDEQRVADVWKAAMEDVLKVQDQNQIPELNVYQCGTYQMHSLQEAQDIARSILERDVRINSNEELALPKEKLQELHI
# TEST METHOD NOTES: AI-2 bioluminescence assay (V. harveyi BB170 reporter) of AI-2 production
# Assay type: cell-based
# APPLIED CONDITIONS: IC50, AI-2 bioluminescence assay; E. coli O157:H7 cultured 16 h with inhibitor, supernatant read with V. harveyi BB170
Please provide measured pIC50 for the entries that follow.
pIC50 field: float, defined as -log10 of concentration (mol/L).

The compound listed as O=C(NC1CCN(Cc2ccccc2)CC1)c1ccc(-c2cc(N3CCCC3)ncn2)cc1 [L010-0050] has a reported pIC50 of 4.69

The compound listed as Cc1ccc2ccc3cc(C(=O)NCCN4CCN(c5cccc(Cl)c5)CC4)[nH]c3c2n1 [E941-0195] has a reported pIC50 of 4.55

The compound listed as CCC(=O)N1CCc2cc(-c3ccc(C(=O)NCc4ccc(N(C)C)cc4)cc3)ccc21 [L413-0180] has a reported pIC50 of 5.39

The compound listed as Cc1ccc(C(=O)N2CCc3cc(CNC(=O)c4ccc(C#N)cc4)ccc32)cc1 [G883-0304] has a reported pIC50 of 4.72

The compound listed as O=C(NCCN1CCN(c2cccc(Cl)c2)CC1)c1cc2ccc3cccnc3c2[nH]1 [E950-0195] has a reported pIC50 of 4.48

The compound listed as CCOc1ccc(NCC(=O)N/N=C/c2c[nH]c3ccccc23)cc1 [1761-1352] has a reported pIC50 of 4.53

The compound listed as Cc1[nH]c(C(=O)NC2CCCCC2)c(C)c1S(=O)(=O)N1CCCCCC1 [F379-1612] has a reported pIC50 of 4.58

The compound listed as O=C(NCCN1CCN(c2ccccc2F)CC1)c1cc2ccc3cccnc3c2[nH]1 [E950-0198] has a reported pIC50 of 4.51

The compound listed as NC1=C(c2nc3ccccc3s2)C(=O)CN1c1cccc(C(=O)NCc2ccccc2)c1 [F187-0533] has a reported pIC50 of 4.87
